Listing: IC50 of selected compounds
target: hBTK (full-length BTK, 6HIS-tag cleaved) (Homo sapiens (Human)); assay: BTK enzymatic activity, LANCE TR-FRET assay (Assay Method C); type: biochemical; conditions: LANCE TR-FRET, 50 pM hBTK, 25 μM ATP; class 100-1000 is given as ≧100 nM-<1 μM; read-out: IC50 Btk activity values - Assay Method C
Sequence (Q06187 whole entry): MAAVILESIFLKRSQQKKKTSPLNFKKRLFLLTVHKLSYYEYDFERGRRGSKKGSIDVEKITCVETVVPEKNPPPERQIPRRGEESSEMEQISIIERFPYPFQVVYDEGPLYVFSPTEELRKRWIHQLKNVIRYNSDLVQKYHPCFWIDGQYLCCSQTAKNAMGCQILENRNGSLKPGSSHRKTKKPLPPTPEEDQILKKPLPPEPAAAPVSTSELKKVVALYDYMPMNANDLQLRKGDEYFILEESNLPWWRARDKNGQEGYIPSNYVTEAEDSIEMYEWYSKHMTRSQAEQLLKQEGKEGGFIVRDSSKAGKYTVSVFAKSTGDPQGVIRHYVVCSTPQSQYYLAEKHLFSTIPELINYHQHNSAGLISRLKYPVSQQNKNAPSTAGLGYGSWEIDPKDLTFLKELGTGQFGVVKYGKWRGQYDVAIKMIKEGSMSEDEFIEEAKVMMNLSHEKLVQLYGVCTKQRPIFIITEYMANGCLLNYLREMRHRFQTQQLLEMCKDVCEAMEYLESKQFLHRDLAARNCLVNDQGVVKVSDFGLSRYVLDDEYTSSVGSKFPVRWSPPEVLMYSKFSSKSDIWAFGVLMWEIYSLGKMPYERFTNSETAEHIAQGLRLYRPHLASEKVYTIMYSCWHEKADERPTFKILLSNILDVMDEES

- CN1C[C@@H](c2nc(-c3ccc(C(=O)Nc4cc(C(F)(F)F)ccn4)cc3F)c3c(N)nccn23)CC[C@@H]1C(F)(F)F [Example 411]: < 10 nM

Task item: Give IC50 (hBTK (full-length BTK, 6HIS-tag cleaved) (Homo sapiens (Human))) of the following compound: Nc1nccn2c([C@@H]3CCCN(C(=O)c4cnsn4)C3)nc(-c3ccc(C(=O)Nc4cc(C(F)(F)F)ccn4)cc3)c12 [Example 330]
Reply: < 10 nM
